Could you please report measured GI50 for the items listed next?
System: A498
experimentalDetails: NCI tumour cell line growth inhibition, 48 h
Calls of active or inactive are those of the source. Cut-off read from the data, not from the text of the source: active = GI50 up to about 1.1 µM and inactive = higher.

OC1(c2ccccc2)CC2CCC(C1)N2CCc1ccccc1 (stereo not given) :: 19 µM (inactive)

Give me GI50 for each of these molecules, listed below.
1. CCc1n[nH]c(=O)n1/N=C/c1ccc(/C=N/n2c(CC)n[nH]c2=O)cc1
2. CC1CC(C)C(=O)C(C(=O)CC2CC(=O)NC2=O)C1 (stereo not given)
3. CC(=O)OCC1OC(Nn2c(=O)[nH]c3ccccc3c2=O)C(OC(C)=O)C(OC(C)=O)C1OC(C)=O (stereo not given)
4. CC[N+](C)(CC)Cc1ccccc1[N+](=O)[O-]

Resp:
> 100 µM (inactive)
> 100 µM (inactive)
> 100 µM (inactive)
41.2 µM (inactive)

* * *

For each entry below, report its GI50 value.
Tested on: TK-10
experimentalDetails: NCI tumour cell line growth inhibition, 48 h
Calls of active or inactive are those of the source. Rule as the data show it: active = GI50 up to about 1.1 µM and inactive = higher.

CCNC(=O)c1ccc(C)c(/N=N/N(C)C)c1 :: > 100 µM (inactive)

Take each entry in turn and give its GI50.
1. CC12N=NN(c3ccc([N+](=O)[O-])cc3)C1(O)c1ccccc1C2=O (configuration not stated)
2. COc1ccc2[nH]c3cc4c(=O)c5cc(OC)ccc5[nH]c4cc3c(=O)c2c1

Resp:
1: > 100 µM (inactive); 2: > 100 µM (inactive)

Report GI50 for each item below.
1. Cc1c(CCCl)c(Cl)n2c(nc3ccccc32)c1C#N
2. CC(C)CCCC(C)C1CCC2C3CC([N+](=O)[O-])=C4CC(O)CCC4(C)C3CCC12C (configuration not stated)
3. COC(=O)c1ccc(C)cc1CC1Cc2ccc(C)cc2C1=O (configuration not stated)

Resp:
1. 1.61 µM (inactive)
2. 21 µM (inactive)
3. 13 µM (inactive)

Dear colleague, could you please provide GI50 for the molecules listed below?
1. Nc1nc(O)c2nc3c(nc2n1)C(=O)N(c1ccc(C(=O)O)cc1)C3
2. Oc1ccc(NCn2c(=S)sc3ccccc32)cc1
3. O=C(Nc1ccccc1)c1cc2ccccc2c(/N=N\c2cccc([N+](=O)[O-])c2)c1O
4. O=C1OC(c2ccccc2)=N/C1=C\c1ccc(Oc2ccc(Cl)c(Cl)c2)cc1

Resp:
> 100 µM (inactive)
> 100 µM (inactive)
> 100 µM (inactive)
> 100 µM (inactive)

# batch size: 6; output GI50 per entry
1. CC1=C(C(=O)Nc2ccccc2C)C(c2ccc(N(C)C)cc2)C(C(=O)Nc2ccccc2C)=C(C)N1
2. Nc1ccc(Oc2ccc(C34CC5CC6C3CC3CC4C(C5)C6(c4ccc(Oc5ccc(N)cc5)cc4)C3)cc2)cc1
3. CCCCn1c2c(n(CCCC)c1=S)-c1c(n(CCCC)c(=S)n1CCCC)S[Se][Se]S2
4. NC(CC1=CCC=CC1)C(=O)O (configuration not stated)
5. Clc1ccc2c(c1)[nH]c1c2nc2ccccn21
6. O=C(c1ccccc1)C(C(=O)c1ccccc1)C1(O)C(=O)c2ccccc2C1=O

Resp:
> 100 µM (inactive)
21.6 µM (inactive)
4.42 µM (inactive)
> 100 µM (inactive)
16.8 µM (inactive)
3.01 µM (inactive)

* * *

Tested on: HOP-18
experimentalDetails: NCI tumour cell line growth inhibition, 48 h
The source made the active and inactive calls. Cut-off read from the data, not from the text of the source: active = GI50 up to about 1.1 µM and inactive = higher.
Bench note: report the call from TRUE (active), FALSE (inactive)

C=C1C(=O)O[C@H]2[C@H]1[C@@H](OC(=O)C=C(C)C)CC1=C[C@@H](C[C@@]3(C)O[C@@H]23)OC1=O :: FALSE
CN1C(=O)N(C)C2(O)c3ccccc3C(=O)C12O (centres undefined) :: FALSE

Continue with the compound presented below.
Req: Status in this test for `Cc1cc(NS(=O)(=O)c2ccc(Nc3c4ccccc4nc4c(C(=O)Nc5ccc(S(=O)(=O)N=C(N)N)cc5)ccc(Cl)c34)cc2)no1` ?
Resp: FALSE

src = ChEMBL document CHEMBL1201862
